Recorded conditions: in isopropanol, 278.15 K
Attribute measured: solubility (mole fraction)

{"Chem smiles": "COc1ccc(C(=O)O)cc1", "Reported measurement": 0.00489}

====

Recorded conditions: in isopropanol, 318.15 K
Attribute measured: solubility (mole fraction)

{"Chem smiles": "COc1ccc(C(=O)O)cc1", "Attribute measured": "solubility (mole fraction)", "Reported measurement": 0.0211}

====

Recorded conditions: in n-propanol, 303.15 K

{"Chem smiles": "COc1ccc(C(=O)O)cc1", "solubility (mole fraction)": 0.0127}

====

Recorded conditions: in chloroform, 283.15 K
Attribute measured: solubility (mole fraction)

{"Chem smiles": "COc1ccc(C(=O)O)cc1", "Reported measurement": 0.00173}

====

Recorded conditions: in methanol, 288.15 K

{"Chem smiles": "COc1ccc(C(=O)O)cc1", "solubility (mole fraction)": 0.00752}

====

Recorded conditions: in ethyl acetate, 293.15 K

{"Chem smiles": "COc1ccc(C(=O)O)cc1", "solubility (mole fraction)": 0.00954}

====

Recorded conditions: in chloroform, 308.15 K
Attribute measured: solubility (mole fraction)

{"Chem smiles": "COc1ccc(C(=O)O)cc1", "Reported measurement": 0.0045}

====

Recorded conditions: in ethanol, 308.15 K

{"Chem smiles": "COc1ccc(C(=O)O)cc1", "solubility (mole fraction)": 0.0163}

====

Recorded conditions: in chloroform, 293.15 K
Attribute measured: solubility (mole fraction)

{"Chem smiles": "COc1ccc(C(=O)O)cc1", "Reported measurement": 0.00251}

====

Recorded conditions: in methanol, 303.15 K
Attribute measured: solubility (mole fraction)

{"Chem smiles": "COc1ccc(C(=O)O)cc1", "Attribute measured": "solubility (mole fraction)", "Reported measurement": 0.0117}

====

Recorded conditions: in ethanol, 298.15 K

{"Chem smiles": "COc1ccc(C(=O)O)cc1", "solubility (mole fraction)": 0.0118}

====

Recorded conditions: in methanol, 298.15 K
Attribute measured: solubility (mole fraction)

{"Chem smiles": "COc1ccc(C(=O)O)cc1", "Reported measurement": 0.0102}

====

Recorded conditions: in isopropanol, 293.15 K
Attribute measured: solubility (mole fraction)

{"Chem smiles": "COc1ccc(C(=O)O)cc1", "Reported measurement": 0.00872}

====

Recorded conditions: in methanol, 278.15 K

{"Chem smiles": "COc1ccc(C(=O)O)cc1", "solubility (mole fraction)": 0.00526}

====

Recorded conditions: in methyl acetate, 273.15 K
Attribute measured: solubility (mole fraction)

{"Chem smiles": "COc1ccc(C(=O)O)cc1", "Attribute measured": "solubility (mole fraction)", "Reported measurement": 0.00527}

====

Recorded conditions: in acetonitrile, 288.15 K

{"Chem smiles": "COc1ccc(C(=O)O)cc1", "solubility (mole fraction)": 0.00194}

====

Recorded conditions: in chloroform, 318.15 K

{"Chem smiles": "COc1ccc(C(=O)O)cc1", "solubility (mole fraction)": 0.00637}

====

Recorded conditions: in ethanol, 318.15 K
Attribute measured: solubility (mole fraction)

{"Chem smiles": "COc1ccc(C(=O)O)cc1", "Attribute measured": "solubility (mole fraction)", "Reported measurement": 0.0221}

====

Recorded conditions: in n-propanol, 313.15 K
Attribute measured: solubility (mole fraction)

{"Chem smiles": "COc1ccc(C(=O)O)cc1", "Reported measurement": 0.0174}

====

Recorded conditions: in methyl acetate, 293.15 K
Attribute measured: solubility (mole fraction)

{"Chem smiles": "COc1ccc(C(=O)O)cc1", "Reported measurement": 0.00968}

====

Recorded conditions: in ethanol, 278.15 K

{"Chem smiles": "COc1ccc(C(=O)O)cc1", "solubility (mole fraction)": 0.00653}

====

Recorded conditions: in acetonitrile, 318.15 K

{"Chem smiles": "COc1ccc(C(=O)O)cc1", "solubility (mole fraction)": 0.00603}

====

Recorded conditions: in acetonitrile, 273.15 K

{"Chem smiles": "COc1ccc(C(=O)O)cc1", "solubility (mole fraction)": 0.00105}

====

Recorded conditions: in isopropanol, 288.15 K

{"Chem smiles": "COc1ccc(C(=O)O)cc1", "solubility (mole fraction)": 0.00722}

====

Recorded conditions: in ethanol, 313.15 K
Attribute measured: solubility (mole fraction)

{"Chem smiles": "COc1ccc(C(=O)O)cc1", "Reported measurement": 0.0188}

====

Recorded conditions: in isopropanol, 273.15 K

{"Chem smiles": "COc1ccc(C(=O)O)cc1", "solubility (mole fraction)": 0.00377}

====

Recorded conditions: in methanol, 318.15 K
Attribute measured: solubility (mole fraction)

{"Chem smiles": "COc1ccc(C(=O)O)cc1", "Reported measurement": 0.0193}

====

Recorded conditions: in ethyl acetate, 318.15 K

{"Chem smiles": "COc1ccc(C(=O)O)cc1", "solubility (mole fraction)": 0.0207}
